Target: GST-FLAG-MSI2 (human, UniProt Q96DH6 1-328)
Sequence (Q96DH6 whole entry): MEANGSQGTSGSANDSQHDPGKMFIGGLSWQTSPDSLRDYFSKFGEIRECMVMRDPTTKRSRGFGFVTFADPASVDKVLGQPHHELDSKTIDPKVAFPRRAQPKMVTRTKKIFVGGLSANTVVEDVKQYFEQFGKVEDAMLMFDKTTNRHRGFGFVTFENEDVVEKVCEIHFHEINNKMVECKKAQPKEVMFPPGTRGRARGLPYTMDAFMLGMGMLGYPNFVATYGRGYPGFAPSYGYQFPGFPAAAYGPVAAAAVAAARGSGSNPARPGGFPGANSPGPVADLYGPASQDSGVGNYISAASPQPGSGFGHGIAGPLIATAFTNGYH
Experiment: competition
quantity kind: pIC50
The read-out pIC50 is expressed as -log10 of concentration in moles per litre.

Prompt: Tell me its pIC50 given GUAGUAGU (ssRNA) [MSI Oligo #5 (unlabeled MSI FP oligo)] as the entry.
Response: 5.34
